ASSAY NAME: Pharmacokinetic test in mice (IV and PO)
Format: in vivo
CONDITION SUMMARY: mouse, plasma; BALB/c mice, IV 2 mg/kg
MEASURED ATTRIBUTE: AUC (µM·h)
Give the value, in units of µM·h, as a plain number.

Consider the reported AUC for these compounds:
IN: Name the recorded AUC of the item O=c1c2nn(C(F)F)cc2c2ccc(C(F)(F)F)nc2n1-c1cccc2[nH]ncc12 in your answer.
OUT: 200

IN: Name the recorded AUC of the item Cc1ncccc1-n1c(=O)c2nn(C)cc2c2ccc(C(F)(F)F)nc21 (single isomer, unassigned) in your answer.
OUT: 3.37

IN: Name the recorded AUC of the item CCn1nc2c(=O)n(-c3cccnc3)c3cc(Cl)ccc3c2c1C in your answer.
OUT: 3.46

Kindly review the next compound as well.
IN: Name the recorded AUC of the item Cn1cc2c(n1)c(=O)n(-c1cccnc1)c1nc(C(F)(F)F)ccc21 in your answer.
OUT: 7.43

====

ASSAY TARGET: MAT2A recombinant protein (Homo sapiens, UniProt P31153)
Sequence (P31153 whole entry): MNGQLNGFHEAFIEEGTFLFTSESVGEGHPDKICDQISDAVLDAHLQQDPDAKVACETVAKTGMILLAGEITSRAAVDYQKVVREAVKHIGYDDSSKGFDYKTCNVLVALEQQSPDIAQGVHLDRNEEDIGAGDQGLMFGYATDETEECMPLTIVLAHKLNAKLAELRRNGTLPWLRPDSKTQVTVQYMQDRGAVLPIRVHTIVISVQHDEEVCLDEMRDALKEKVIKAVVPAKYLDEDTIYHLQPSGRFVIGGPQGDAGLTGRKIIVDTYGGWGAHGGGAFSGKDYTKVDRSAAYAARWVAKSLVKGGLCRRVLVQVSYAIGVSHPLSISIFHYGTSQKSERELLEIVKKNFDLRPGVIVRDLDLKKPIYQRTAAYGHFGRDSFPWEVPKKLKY
ASSAY NAME: MAT2A inhibitory activity (malachite green colorimetric enzyme assay)
Type: biochemical
CONDITION SUMMARY: read-out: MAT2A Inhibition
Here, each record is paired with measured IC50 data.

IN: Name the recorded IC50 of the item Cn1cnc2c(=O)n(-c3ccc4ncccc4n3)c3nc(C(F)(F)F)ccc3c21 in your answer.
OUT: > 10 µM

New cases:
IN: Name the recorded IC50 of the item Cn1cnc2c(=O)n(-c3ccc4ccccc4c3)c3nc(C(F)(F)F)ccc3c21 in your answer.
OUT: > 10 µM

IN: Name the recorded IC50 of the item Cn1cnc2c(=O)n(-c3ccc4ccccc4n3)c3nc(C(F)(F)F)ccc3c21 in your answer.
OUT: > 10 µM

IN: Name the recorded IC50 of the item Cn1cnc2c(=O)n(-c3cccc4cccnc34)c3cc(Cl)c(C#N)cc3c21 in your answer.
OUT: > 1 µM

IN: Name the recorded IC50 of the item Cn1ncc2c3ccc(C(F)(F)F)nc3n(-c3ccccc3Cl)c(=O)c21 in your answer.
OUT: > 10 µM

====

Here, each record is paired with measured pIC50 data.
Tested on: SDMA in human colon cancer cell line HCT116
ASSAY NAME: Cell symmetric dimethylarginine (SDMA) test, In-cell Western, HCT116 (MTAP wild-type)
Assay type: cell-based
CONDITION SUMMARY: Homo sapiens, HCT-116, 96 h, IC50 score class, read-out: Cell 96 h SDMA Inhibition (HCT116-MTAP+/+) (score)
pIC50: −log10 of the molar value.

Consider the reported pIC50 for these compounds:
IN: Name the recorded pIC50 of the item Cn1cc2c(n1)c(=O)n(-c1cccc3[nH]nc(F)c13)c1cc(Cl)c(F)cc21 in your answer.
OUT: < 5.52

IN: Name the recorded pIC50 of the item O=c1c2nn(C3CC3)cc2c2ccc(C(F)(F)F)nc2n1-c1cccnc1 in your answer.
OUT: 5.52 to 6.00

IN: Name the recorded pIC50 of the item COc1ncccc1-n1c(=O)c2nn(C)cc2c2ccc(C(F)(F)F)nc21 in your answer.
OUT: 6.00 to 6.70

IN: Name the recorded pIC50 of the item Cn1nc2c(=O)n(-c3cccnc3)c3cc(Cl)ccc3c2c1C(F)F in your answer.
OUT: < 5.52

IN: Name the recorded pIC50 of the item Cn1cc2c(n1)c(=O)n(-c1cccc3[nH]ncc13)c1cc(C(F)(F)F)c(C#N)cc21 in your answer.
OUT: < 5.52

Kindly review the next compound as well.
IN: Name the recorded pIC50 of the item Cn1cc2c(n1)c(=O)n(-c1cccc3[nH]ncc13)c1nc(C(F)(F)F)c(C#N)cc21 in your answer.
OUT: < 5.52

====

Here, each record is paired with measured IC50 data.
Tested on: SDMA in HCT116-MTAP-knockout cell line
ASSAY NAME: Cell symmetric dimethylarginine (SDMA) test, In-cell Western, HCT116-MTAP-knockout
Format: cell-based
CONDITION SUMMARY: Homo sapiens, 96 h, IC50 score class, read-out: Cell 96 h SDMA Inhibition (HCT116-MTAP−/−) (score)

Consider the reported IC50 for these molecules:
IN: Name the recorded IC50 of the item Cn1cc2c(n1)c(=O)n(-c1cccnc1C1CC1)c1cc(Cl)c(F)cc21 [Compound B340] in your answer.
OUT: < 200 nM

IN: Name the recorded IC50 of the item Cn1cc2c(n1)c(=O)n(-c1cccnc1C(F)(F)F)c1nc(C(F)(F)F)ccc21 [Compound B80] in your answer.
OUT: 200 to 1000 nM

IN: Name the recorded IC50 of the item CCn1cc2c(n1)c(=O)n(Cc1c[nH]cn1)c1cc(Cl)ccc21 [Compound B18] in your answer.
OUT: > 3000 nM

New cases:
IN: Name the recorded IC50 of the item Cc1cncc(-n2c(=O)c3nn(C)cc3c3ccc(C(F)(F)F)nc32)c1 [Compound B217] in your answer.
OUT: 1000 to 3000 nM

IN: Name the recorded IC50 of the item O=c1c2nn(C(F)F)cc2c2ccc(C(F)(F)F)nc2n1-c1cccnc1 [Compound B255] in your answer.
OUT: 200 to 1000 nM

IN: Name the recorded IC50 of the item Cn1cc2c(n1)c(=O)n(-c1cccnc1)c1cc(Cl)c(F)cc21 [Compound B139] in your answer.
OUT: 200 to 1000 nM

IN: Name the recorded IC50 of the item CNC(=O)CC1N=c2c(c3ccc(Cl)cc3n(-c3cccnc3)c2=O)=N1 (stereo not shown) [Compound B37] in your answer.
OUT: 200 to 1000 nM

====

System: HCT116-MTAP-knockout (−/−) cell strain
ASSAY NAME: Tumor cell proliferation inhibition assay (CellTiter-Glo), HCT116-MTAP-knockout (-/-)
Type: cell-based
CONDITION SUMMARY: Homo sapiens, 120 h, HCT116-MTAP-knockout (−/−) cells, 5-day treatment, IC50 score, read-out: Tumor cell 5-day relative growth inhibition (HCT116-MTAP−/−) (nM), score
MEASURED ATTRIBUTE: IC50

Consider the reported IC50 for these compounds:
IN: Name the recorded IC50 of the item Cc1ncccc1-n1c(=O)c2nn(C)cc2c2ccc(C(F)(F)F)nc21 (single isomer, unassigned) in your answer.
OUT: < 500 nM

IN: Name the recorded IC50 of the item Cc1c2c(nn1C)c(=O)n(-c1cccnc1)c1nc(C(F)(F)F)ccc21 in your answer.
OUT: < 500 nM

IN: Name the recorded IC50 of the item Cc1c2c(nn1C(F)F)c(=O)n(-c1cccnc1)c1nc(C(F)(F)F)ccc21 in your answer.
OUT: < 500 nM

IN: Name the recorded IC50 of the item O=c1c2nn(C(F)F)cc2c2ccc(C(F)(F)F)nc2n1-c1cccc2[nH]ncc12 in your answer.
OUT: < 500 nM

IN: Name the recorded IC50 of the item Cn1cc2c(n1)c(=O)n(-c1cccnc1C(F)(F)F)c1cc(Cl)c(F)cc21 (single isomer, unassigned) [Compound B389] in your answer.
OUT: < 500 nM

IN: Name the recorded IC50 of the item Cn1cc2c(n1)c(=O)n(-c1ccccc1Cl)c1nc(C(F)(F)F)ccc21 in your answer.
OUT: 500 to 2000 nM

IN: Name the recorded IC50 of the item Cn1cc2c(n1)c(=O)n(-c1cccnc1)c1nc(C(F)(F)F)ccc21 in your answer.
OUT: < 500 nM

IN: Name the recorded IC50 of the item Cn1ccc(Cn2cc3c(n2)c(=O)n(-c2cccnc2)c2cc(Cl)ccc32)n1 in your answer.
OUT: < 500 nM

New cases:
IN: Name the recorded IC50 of the item Cn1cc2c(n1)c(=O)n(-c1cccnc1C1CC1)c1cc(Cl)c(C#N)cc21 in your answer.
OUT: ≥ 2000 nM

IN: Name the recorded IC50 of the item Cn1cc2c(n1)c(=O)n(-c1cccc3[nH]ncc13)c1cc(Cl)ccc21 in your answer.
OUT: < 500 nM

IN: Name the recorded IC50 of the item O=c1c2nn(C(F)F)cc2c2ccc(Cl)cc2n1-c1cccnc1 in your answer.
OUT: < 500 nM

IN: Name the recorded IC50 of the item O=c1c2nn(C(F)F)cc2c2cc(F)c(Cl)cc2n1-c1cccc2[nH]ncc12 in your answer.
OUT: < 500 nM

IN: Name the recorded IC50 of the item Cn1cc2c(n1)c(=O)n(-c1cccc3[nH]ncc13)c1cc(Cl)cnc21 in your answer.
OUT: 500 to 2000 nM

IN: Name the recorded IC50 of the item COc1ccc(Cn2cc3c(n2)c(=O)n(-c2cccnc2)c2cc(Cl)ccc32)cc1 in your answer.
OUT: < 500 nM

IN: Name the recorded IC50 of the item Cc1ncccc1-n1c(=O)c2nn(C)c(C)c2c2ccc(C(F)(F)F)nc21 in your answer.
OUT: < 500 nM

IN: Name the recorded IC50 of the item O=c1c2nn(C(F)F)cc2c2ccc(C(F)(F)F)nc2n1-c1cccnc1 in your answer.
OUT: 500 to 2000 nM

IN: Name the recorded IC50 of the item O=c1c2n[nH]cc2c2ccc(C(F)(F)F)nc2n1-c1cccnc1 in your answer.
OUT: < 500 nM

IN: Name the recorded IC50 of the item Cc1ncccc1-n1c(=O)c2nn(CC3CC3)cc2c2ccc(C(F)(F)F)nc21 in your answer.
OUT: < 500 nM
